METHOD_SUMMARY: qHTS RealTime-Glo MT Cell Viability Assay in HEK293 cells - 16 hour (AID 1224872); also: nearly all actives have a fitted effect of over 50% in size
COND: RealTime-Glo luminescence; series mostly up to 76.8 µM
Results filed as inconclusive are left out. Activity calls are given as the source filed them. Calls follow the shape of the dose curve; as a rule, active = well fitted cell-killing curve with a large enough effect in the repeat runs; inconclusive = weak or mixed curves, or effect the other way; inactive = flat fitted curve, though single readings scatter.
Return exactly one item of label 1 (active), label 0 (inactive)

INPUT: Test call for this compound, please: "CC(=O)[O-].CC(=O)[O-].CC(=O)[O-].[Cr+3]"
OUTPUT: label 0

INPUT: Test call for this compound, please: CCOP(=S)(OCC)SC(CCl)N1C(=O)c2ccccc2C1=O (stereo unspecified)
OUTPUT: label 0

INPUT: Test call for this compound, please: "S=C=NCCc1ccccc1"
OUTPUT: label 1

INPUT: Test call for this compound, please: "CC[C@]1(O)CC[C@H]2[C@@H]3CCC4=CCCC[C@@H]4[C@H]3CC[C@@]21C"
OUTPUT: label 0

INPUT: Test call for this compound, please: CC(=O)C(Cl)C(=O)N(C)C (stereo unspecified)
OUTPUT: label 0

INPUT: Test call for this compound, please: "BrCCCBr"
OUTPUT: label 0

INPUT: Test call for this compound, please: "C=CC(=O)[O][Sn]([CH2]CCC)([CH2]CCC)[CH2]CCC"
OUTPUT: label 1

INPUT: Test call for this compound, please: "CCN(CC)C(=S)S"
OUTPUT: label 0

INPUT: Test call for this compound, please: "Brc1cccc(-c2ccccc2)c1"
OUTPUT: label 0

INPUT: Test call for this compound, please: "CCOC(=O)Cc1ccccc1"
OUTPUT: label 0

INPUT: Test call for this compound, please: "[C-]1=CC=CC1.[Cl][Zr+2][Cl].c1cc[cH-]c1"
OUTPUT: label 0

INPUT: Test call for this compound, please: "O=c1c2ccccc2c(=O)c2c1cc(Cl)c1[nH]c3c([nH]c12)c(Cl)cc1c(=O)c2ccccc2c(=O)c13"
OUTPUT: label 0

INPUT: Test call for this compound, please: CC[N+]1(CC)CCC(OC(=O)C(O)(c2ccccc2)c2ccccc2)C1 (stereo unspecified)
OUTPUT: label 0

INPUT: Test call for this compound, please: "CCNS(=O)(=O)C(F)(F)C(F)(F)C(F)(F)C(F)(F)C(F)(F)C(F)(F)C(F)(F)C(F)(F)F"
OUTPUT: label 0

INPUT: Test call for this compound, please: CN1CCc2cc3c(cc2C1O)OCO3 (stereo unspecified)
OUTPUT: label 0

INPUT: Test call for this compound, please: "COCCC#N"
OUTPUT: label 0

INPUT: Test call for this compound, please: "Clc1ccc(C(Cl)(Cl)Cl)cc1Cl"
OUTPUT: label 1

INPUT: Test call for this compound, please: "C#CCO"
OUTPUT: label 0

INPUT: Test call for this compound, please: "O=C(NC(=O)c1c(F)cccc1F)Nc1ccc(Oc2ccc(C(F)(F)F)cc2Cl)cc1F"
OUTPUT: label 1

INPUT: Test call for this compound, please: CN1[C@@H]2CC[C@H]1CC(O)C2 (stereo partly specified)
OUTPUT: label 0

INPUT: Test call for this compound, please: "COP(=O)(OC)Oc1ccc([N+](=O)[O-])cc1"
OUTPUT: label 0

INPUT: Test call for this compound, please: "CCOP(=S)(OCC)Oc1cc(C)nc(N(CC)CC)n1"
OUTPUT: label 0

INPUT: Test call for this compound, please: "O=Cc1ccccc1"
OUTPUT: label 0

INPUT: Test call for this compound, please: "O=C(CCCCl)c1ccc(F)cc1"
OUTPUT: label 0

INPUT: Test call for this compound, please: "O=C(N[C@H]1N=C(c2ccccc2F)c2cccc3c2N(CC3)C1=O)c1cc2ccccc2[nH]1"
OUTPUT: label 0

INPUT: Test call for this compound, please: "ClC1=C(Cl)[C@]2(Cl)[C@@H]3[C@H]4C[C@H]([C@@H]5O[C@H]45)[C@@H]3[C@@]1(Cl)C2(Cl)Cl"
OUTPUT: label 0
